Values compiled from patent US20240391875A1.

Target: POLRMT (Homo sapiens, UniProt O00411)
Sequence (O00411 42-1230): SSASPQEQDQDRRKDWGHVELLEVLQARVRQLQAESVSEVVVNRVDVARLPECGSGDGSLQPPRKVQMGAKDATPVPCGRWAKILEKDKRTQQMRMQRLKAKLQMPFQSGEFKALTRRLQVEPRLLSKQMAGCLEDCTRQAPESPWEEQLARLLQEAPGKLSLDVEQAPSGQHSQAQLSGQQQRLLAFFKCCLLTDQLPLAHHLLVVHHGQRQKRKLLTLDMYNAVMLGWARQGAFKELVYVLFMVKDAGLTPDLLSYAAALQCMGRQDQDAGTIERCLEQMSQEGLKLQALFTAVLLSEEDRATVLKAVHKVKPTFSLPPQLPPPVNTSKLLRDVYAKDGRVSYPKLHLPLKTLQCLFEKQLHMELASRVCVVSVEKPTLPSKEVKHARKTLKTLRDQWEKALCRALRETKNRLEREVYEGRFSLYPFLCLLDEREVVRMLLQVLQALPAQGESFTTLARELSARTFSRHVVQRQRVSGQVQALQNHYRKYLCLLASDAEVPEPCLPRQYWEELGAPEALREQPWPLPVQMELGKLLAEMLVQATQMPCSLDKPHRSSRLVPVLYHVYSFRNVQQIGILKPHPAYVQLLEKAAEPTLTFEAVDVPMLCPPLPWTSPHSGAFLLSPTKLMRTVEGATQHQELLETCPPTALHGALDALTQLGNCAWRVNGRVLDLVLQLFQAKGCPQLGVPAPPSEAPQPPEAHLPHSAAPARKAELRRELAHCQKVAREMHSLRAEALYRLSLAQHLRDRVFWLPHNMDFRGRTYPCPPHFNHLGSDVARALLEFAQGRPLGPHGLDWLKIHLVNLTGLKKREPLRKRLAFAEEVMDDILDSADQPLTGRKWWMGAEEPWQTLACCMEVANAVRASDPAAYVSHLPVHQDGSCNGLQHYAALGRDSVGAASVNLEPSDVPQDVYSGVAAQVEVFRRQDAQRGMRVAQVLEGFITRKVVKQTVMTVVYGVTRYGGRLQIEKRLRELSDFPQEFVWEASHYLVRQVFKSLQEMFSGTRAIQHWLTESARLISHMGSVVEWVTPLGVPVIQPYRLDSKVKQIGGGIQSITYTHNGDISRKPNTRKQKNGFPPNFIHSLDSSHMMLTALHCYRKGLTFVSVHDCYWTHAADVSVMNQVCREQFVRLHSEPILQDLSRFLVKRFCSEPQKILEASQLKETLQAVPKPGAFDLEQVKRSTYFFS
Experiment: homogeneous TR-FRET assay of mitochondrial transcription (inhibition of POLRMT)
Format: biochemical
Settings: isoquinolinone compounds (Table 1)
Can you tell me pIC50 for the items I'm about to list?
Notebook: values listed as pIC50 are -log10 of the concentration (mol/L).

Lab book: pIC50 of Cc1ccccc1-c1c[nH]c(=O)c2cc(OC(C)C(N)=O)ccc12 (stereo not drawn) [Example 71] noted as 6.00

Lab book: pIC50 of Cc1ccccc1-c1c[nH]c(=O)c2cc(CC(C)C(=O)N3CCCCC3)ccc12 (stereo not drawn) noted as 6.00

Lab book: pIC50 of CNC(=O)[C@@H](C)Oc1ccc2c(-c3ccccc3C)c[nH]c(=O)c2c1 noted as 6.00

Lab book: pIC50 of Cc1ccccc1-c1c[nH]c(=O)c2cc(O[C@H](C)C(=O)N3CCCC(S(C)(=O)=O)C3)ccc12 (single isomer, unassigned) [Example 98] noted as 6.52
